# procedure.summary: pKa, pI and charge distribution of buffers
# reported.conditions: Table 2
Non-standard residues stand in square brackets, D forms with d. Residues, ends and D or L forms follow the SMILES beside them. Cit = NC(=O)NCCC[C@H](N)C(=O)O
experimental.readout: pI
Answers are plain numbers.

Solved entries:
NC(=O)NCCC[C@H](N)C(=O)N[C@@H](Cc1c[nH]cn1)C(=O)O [Citrulline-His] (H-[Cit]-His-OH) : 7.30
N[C@@H](CCC(=O)O)C(=O)N[C@@H](Cc1cnc[nH]1)C(=O)O [Glu-His] (H-Glu-His-OH) : 5.20
NCCCC[C@H](NC(=O)[C@@H](N)Cc1cnc[nH]1)C(=O)O [His-Lys] (H-His-Lys-OH) : 9.40
CC(C)[C@H](N)C(=O)N[C@@H](Cc1cnc[nH]1)C(=O)O [Val-His] (H-Val-His-OH) : 7.38
N[C@@H](Cc1cnc[nH]1)C(=O)N[C@@H](CO)C(=O)O [His-Ser] (H-His-Ser-OH) : 6.95
NCCCC[C@H](NC(=O)[C@@H](N)CCC(=O)O)C(=O)O [Glu-Lys] (H-Glu-Lys-OH) : 6.00
NC[C@H](O)CC[C@H](N)C(=O)N[C@@H](Cc1c[nH]cn1)C(=O)O [Hydroxylysine-His] : 8.60
CSCC[C@H](NC(=O)[C@@H](N)Cc1cnc[nH]1)C(=O)O [His-Met] (H-His-Met-OH) : 6.95
NCCCC[C@H](N)C(=O)N[C@@H](CC(=O)O)C(=O)O [Lys-Asp] (H-Lys-Asp-OH) : 6.08
O=C(O)C(Cc1cnc[nH]1)NC(=O)C1CCCN1 (centres unmarked) [Pro-His] : 7.90

Dear colleague, could you please provide pI for the compounds listed below?
1. N[C@@H](Cc1ccc(O)cc1)C(=O)N[C@@H](Cc1cnc[nH]1)C(=O)O [Tyr-His] (H-Tyr-His-OH)
2. NCC(=O)N[C@@H](CC(=O)O)C(=O)O [Gly-Asp] (H-Gly-Asp-OH)

[out]
1. 7.15
2. 3.60

Quick request: pI for each listed item, please.
1. NCC(O)CC[C@H](NC(=O)[C@@H](N)Cc1c[nH]cn1)C(=O)O (some centres unmarked) [His-Hydroxylysine]
2. NC(N)=NCCC[C@H](NC(=O)[C@@H](N)Cc1ccc(O)cc1)C(=O)O [Tyr-Arg]

[out]
[8.75, 8.40]

---

Exercise: state measured pI for each of the compounds provided.
# procedure.summary: pKa, pI and charge distribution of buffers
# reported.conditions: Table 1
Residues, ends and D or L forms follow the SMILES beside them.

Solved cases (2 shown):
C[C@H](NC(=O)[C@@H](N)Cc1cnc[nH]1)C(=O)O [His-Ala] (H-His-Ala-OH) : 6.95
N[C@@H](Cc1cnc[nH]1)C(=O)N[C@@H](CC(=O)O)C(=O)O [His-Asp] (H-His-Asp-OH) : 5.22

Answer for every listed entry: what is its pI? The entries follow.
1. N[C@@H](Cc1cnc[nH]1)C(=O)N[C@@H](CCC(=O)O)C(=O)O [His-Glu] (H-His-Glu-OH)
2. NCCCC[C@H](N)C(=O)N[C@@H](CCC(=O)O)C(=O)O [Lys-Glu] (H-Lys-Glu-OH)

[out]
[5.20, 6.06]

Take each entry in turn and give its pI.
1. NCCCC[C@H](NC(=O)[C@@H](N)CCC(=O)O)C(=O)O [Glu-Lys] (H-Glu-Lys-OH)
2. NCCCC[C@H](N)C(=O)N[C@@H](CC(=O)O)C(=O)O [Lys-Asp] (H-Lys-Asp-OH)
3. NCC(=O)N[C@@H](Cc1cnc[nH]1)C(=O)O [Gly-His] (H-Gly-His-OH)
4. CC(C)[C@H](N)C(=O)N[C@@H](Cc1cnc[nH]1)C(=O)O [Val-His] (H-Val-His-OH)
5. N[C@@H](Cc1cnc[nH]1)C(=O)NCC(=O)O [His-Gly] (H-His-Gly-OH)

[out]
1: 6.00; 2: 6.08; 3: 7.55; 4: 7.38; 5: 6.90
